- STUDY_SYSTEM: T1, recombinant human C5 (human, UniProt P01031 20-1676)
- T1 construct: The same entry is used here for C5 in normal human serum in the functional rows; also called hC5; rhC5
- TEST_SUMMARY: SPR (BIACORE T200), antibody captured by ProA/G, recombinant human C5 injected, 37 degrees C, pH5.8; pH 5.8
Here, each record is paired with measured log10(kon) data.
A difference of one corresponds to tenfold kon; all values are log10 with kon in M⁻¹ s⁻¹.

The reported log10(kon) of the binder CFA0341 (antibody, V domains shown) VH: QSVEESGGRLVTPGTPLTLTCTVSGIDLSSYTMGWVRQAPGKGLECIGYIHSFGSTYYASWAKGRFTISKTSTTVDLEITSPTTEDTATYFCARDVGGSSGWDLWGQGTLVTVSS VL: DVVMTQTPSSVSAAVGGTVTIKCQASENIYSNLAWYQQKPGQPPKRLIYDASDLASGVPSRFSGSGYGTQFTLTISGVQCEDAATYYCQANYDSTSSSFGNVFGGGTEVVVK was 6.09

The reported log10(kon) of the binder CFA0675 (antibody, V domains shown) VH: QSVEESGGRLVTPGTPLTLTCTVSGFSLSTYAMGWVRQAPGKGLEWIGTIDTGDNSFYANWAKGRFTISRTSTTVDLKITSPTAEDTATYFCARNDGSVYNLFNLWGPGTLVTVSS VL: DVVMTQTPASVSAAVGGTVTIKCQASENIYSALSWYQQKPGLRPRLLIYYASTLASGVPSRFKGSRSGTEFTLTISDLECADAASYYCQQYYDINSVDNTFGGGTKVVVE was 5.59

The reported log10(kon) of the binder CFA0501 (antibody, V domains shown) VH: QSVEESGGRLVTPGTPLTLTCTASGFSLSSYYMNWVRQAPGKGLEWIGMIYGSGATYYASWAKGRFTISKTSSTTVDLKMTSLTTEDTATYFCARQIYSGDNNDNFWGPGTLVTVSS VL: AYDMTQTPASVEVAVGGTVTINCQASESISNWLAWYQQKPGQRPKLLIYRASTLASGVSSRFKGSGSGTQFTLTISGVECDDAATYYCQQDYSSSNVDNTFGGGTKVVVE was 5.18

The reported log10(kon) of the binder CFA0672 (antibody, V domains shown) VH: QSVEESGGRLVTPGTPLTLTCTASGFSLSGNAINWVRQAPGKGLEWIGCIYTGSDTTYYATWAKGRFTISKTSTTVDLKIASPTTEDTATYFCARGSGLWGPGTLVTVSS VL: DVVMTQTPASVSAPVGGTVTIKCQASQNIYSLLAWYQQKPGQPPKLLIYHTSDLASGVPSRFRGSGSGTEFTLTISDLECADAATYYCQCTAYGSSDVGGTFGGGTTVVVE was 4.85

The reported log10(kon) of the binder CFA0305 (antibody, V domains shown) VH: QSLEESGGDLVKPGASLAVTCTASGFSSSSSYYMCWVRQAPGKGLEWIGCIYTGSGATYYASWAKGRFTISKTSSTTVTLQMTSLTVADTATYFCASDGGYVTPTHAMYLWGPGTLVTVSS VL: DVVMTQTPASVSAAVGGTVTIKCQASQNIGSDLAWYQQKPGQPPRLLIYGASKLASGVSSRFSGSGSGKEFTLTISDLECADAVTYYCQCTFVGSSYGNAFGGGTEVVVK was 4.63

Value source: patent EP4785956A2
